// provenance: paper PMC6150237

measurement.protocol: In situ single-pass intestinal perfusion (SPIP), saponins administrated in MDQ-TS form
Type: in vivo, rat
cond: male, Sprague-Dawley, rat, other: in situ single-pass intestinal perfusion, MDQ-TS form 5.0 mg·mL^−1, duodenum, n = 5

- molecule: "CC1CCC2(C(=O)OC3OC(CO)C(O)C(O)C3O)CCC3(C)C(=CCC4C5(C)CCC(O)C(C)(C(=O)O)C5CCC43C)C2C1(C)O (centres unmarked)"
  measure.unit: "×10⁻⁶ cm/s"
  Papp: 36.7
- molecule: "C[C@@H]1CC[C@]2(C(=O)O)CC[C@]3(C)C(=CC[C@@H]4[C@@]5(C)CC[C@H](O)[C@@](C)(C(=O)O)[C@@H]5CC[C@]43C)[C@@H]2[C@]1(C)O"
  measure.unit: "×10⁻⁶ cm/s"
  Papp: 56.7

---

Test system: rat duodenum
measurement.protocol: SPIP of MDQ-TS with or without EDTA (tight junction modulator)
Assay type: in vivo
cond: MDQ-TS 2.5 mg/mL, EDTA 2.5 mmol·L^−1
assay.endpoint: Papp increase in comparison with non-EDTA added group

- compound: "CC1CCC2(C(=O)OC3OC(CO)C(O)C(O)C3O)CCC3(C)C(=CCC4C5(C)CCC(O)C(C)(C(=O)O)C5CCC43C)C2C1(C)O (centres unmarked)"
  experimental.value: "~1.2 fold"
- compound: "C[C@@H]1O[C@@H](O[C@H]2[C@H](O[C@H]3[C@H](O[C@H]4CC[C@]5(C)[C@H]6CC=C7[C@H]8[C@](C(=O)O)(CC[C@H](C)[C@@]8(C)O)CC[C@@]7(C)[C@]6(C)CC[C@H]5C4(C)C)OC[C@@H](O)[C@@H]3O)O[C@H](CO)[C@@H](O)[C@@H]2O)[C@H](O)[C@H](O)[C@H]1O"
  experimental.value: "~1.5 fold"
- compound: "C[C@@H]1O[C@@H](O[C@H]2[C@H](O[C@H]3[C@H](O[C@H]4CC[C@]5(C)[C@H]6CC=C7[C@H]8[C@](C(=O)O[C@@H]9O[C@H](CO)[C@@H](O)[C@H](O)[C@H]9O)(CC[C@H](C)[C@@]8(C)O)CC[C@@]7(C)[C@]6(C)CC[C@H]5C4(C)C)OC[C@@H](O)[C@@H]3O)O[C@H](CO)[C@@H](O)[C@@H]2O)[C@H](O)[C@H](O)[C@H]1O [DC2, ilexoside O]"
  experimental.value: "~2.1 fold"
- compound: "C[C@H]1CC[C@]2(C(=O)O)CC[C@]3(C)C(=CC[C@@H]4[C@@]5(C)CC[C@H](O[C@@H]6OC[C@@H](O)[C@H](O)[C@H]6O[C@@H]6O[C@H](CO)[C@@H](O)[C@H](O)[C@H]6O)C(C)(C)[C@@H]5CC[C@]43C)[C@@H]2[C@]1(C)O"
  experimental.value: "~1.9 fold"
